Measured Stability values are reported for all entries that follow.
Assay: Stability in human plasma assessed as parent compound remaining at 20 uM measured after 1 hr by LC-MS/MS analysis
recordedEndpoint: Stability (%)

1. CC(=O)NCCCC[C@H](NC(=O)OC12CC3CC(CC(C3)C1)C2)C(=O)N[C@@H](CCC(=O)C=[N+]=[N-])C(=O)OC(C)C; 100
2. CC(=O)NCCCC[C@H](NC(=O)[C@H](Cc1c[nH]c2ccccc12)NC(=O)C(C)(C)C)C(=O)N[C@@H](CCC(=O)C=[N+]=[N-])C(=O)OC(C)C; 88
3. CCCCCCCC(=O)N[C@@H](CCCCNC(C)=O)C(=O)N[C@@H](CCC(=O)C=[N+]=[N-])C(=O)OC(C)C; 95
4. CC(=O)NCCCC[C@H](NC(=O)OC(C)(C)C)C(=O)N[C@@H](CCC(=O)C=[N+]=[N-])C(=O)OC(C)C; 95
5. CC(=O)NCCCC[C@H](NC(=O)[C@@H]1Cc2ccccc2CN1C(C)=O)C(=O)N[C@@H](CCC(=O)C=[N+]=[N-])C(=O)OC(C)C; 110
6. CC(=O)NCCCC[C@H](NC(=O)OCC1c2ccccc2-c2ccccc21)C(=O)N[C@@H](CCC(=O)C=[N+]=[N-])C(=O)OC(C)C; 93
7. CC(=O)NCCCC[C@H](NC(=O)[C@@H]1Cc2ccccc2CN1)C(=O)N[C@@H](CCC(=O)C=[N+]=[N-])C(=O)OC(C)C; 95
8. CCCCCCCCCCCCCCCC(=O)N[C@@H](CCCCNC(C)=O)C(=O)N[C@@H](CCC(=O)C=[N+]=[N-])C(=O)OC(C)C; 84
9. CC(=O)NCCCC[C@H](NC(=O)[C@@H](N)Cc1c[nH]c2ccccc12)C(=O)N[C@@H](CCC(=O)C=[N+]=[N-])C(=O)OC(C)C; 7
10. CC(=O)NCCCC[C@H](NC(=O)[C@H](Cc1c[nH]c2ccccc12)NC(C)=O)C(=O)N[C@@H](CCC(=O)C=[N+]=[N-])C(=O)OC(C)C; 102
11. CC(=O)NCCCC[C@H](NC(=O)Cc1c[nH]c2ccccc12)C(=O)N[C@@H](CCC(=O)C=[N+]=[N-])C(=O)OC(C)C; 94
12. CC(=O)NCCCC[C@H](NC(=O)C12CC3CC(CC(C3)C1)C2)C(=O)N[C@@H](CCC(=O)C=[N+]=[N-])C(=O)OC(C)C; 107

====

Test: AUC in CES1-deficient C57BL/6 mouse jejunum implanted with mouse EL4 cells assessed as 6-diazo-5-oxo-L-norleucine level at 3.2 mg/kg, sc administered as single dose by LC-MS/MS analysis
Settings: in vivo
recordedEndpoint: AUC (nmol·h/g)

1) CC(=O)NCCCC[C@H](NC(=O)C12CC3CC(CC(C3)C1)C2)C(=O)N[C@@H](CCC(=O)C=[N+]=[N-])C(=O)OC(C)C; 0.45

====

Test: Tmax in CES1-deficient C57BL/6 mouse tumor implanted with mouse EL4 cells at 3.2 mg/kg, sc administered as single dose by LC-MS/MS analysis
Format: ADME, organism-based, Neoplasm
recordedEndpoint: Tmax

1) CC(=O)NCCCC[C@H](NC(=O)C12CC3CC(CC(C3)C1)C2)C(=O)N[C@@H](CCC(=O)C=[N+]=[N-])C(=O)OC(C)C; 30 min
